Tested on: mouse TTR gene
ASSAY_INFO: In vivo editing in mouse liver, sgRNA targeting TTR (G282 or G502), % indel by NGS
Design: species or system CD-1 female mice
CONDITIONS_USED: guide G502, i.v. 0.1 mg/kg, sgRNA:Cas9 mRNA 1:2 w/w, experiments 106, 107
PARAMETER_MEASURED: Editing Mean % Indel (%)
Numbers only; they are read as %.

Tested system mouse TTR gene; Editing Mean % Indel recorded for CCCCCCCCCCCCCCCCCC(=O)OCC(COC(=O)CCC(OCCCCCCCC)OCCCCCCCC)COC(=O)OCCCN(CC)CC (stereo not shown) [Compound 114] was 18.04

Tested system mouse TTR gene; Editing Mean % Indel recorded for CCCCC/C=C\C/C=C\CCCCCCCC(=O)OCC(COC(=O)CCC(OCCCCCCCC)OCCCCCCCC)COC(=O)NCCN1CCCCC1 (stereo not shown) [Compound 101] was 25.9

Tested system mouse TTR gene; Editing Mean % Indel recorded for CC/C=C\C/C=C\C/C=C\CCCCCCCC(=O)OCC(COC(=O)CCC(OCCCCCCCC)OCCCCCCCC)COC(=O)OCCCN(CC)CC (stereo not shown) [Compound 116] was 34.48

Tested system mouse TTR gene; Editing Mean % Indel recorded for CCCCC/C=C\C/C=C\CCCCCCCC(=O)OCC(COC(=O)CCC(OCCCCCCCC)OCCCCCCCC)COC(=O)NCCN1CCCCCC1 (stereo not shown) [Compound 103] was 4.2

====

ASSAY_INFO: Dynamic light scattering of LNPs: Z-average diameter, number average diameter, PDI
Assay type: physicochemical
CONDITIONS_USED: LNP, sg:mRNA 1:1, N/P about 6, 50/9/38/3; Table 2, Experiments 2-20
PARAMETER_MEASURED: Z-avg (nm)
Numbers only; they are read as nm.

Sample CCCCCCCCCCCCOC(=O)CCCCCCCC(=O)OCC(COC(=O)CCC(OCCCCCCCC)OCCCCCCCC)COC(=O)OCCCN(CC)CC (stereo not drawn) ; Z-avg (nm) observed: 93.69

Sample CCCCC/C=C\C/C=C\CCCCCCCC(=O)OCC(COC(=O)CCC(OCCCCCCCC)OCCCCCCCC)COC(=O)OCC1CCCN1C (stereo not drawn) ; Z-avg (nm) observed: 64.69

Sample CCCCCC/C=C\COC(=O)CCCCCCCC(=O)OCC(COC(=O)CCC(OCCCCCCC)OCCCCCCC)COC(=O)OCCCN(CC)CC (stereo not drawn) ; Z-avg (nm) observed: 114.2

====

ASSAY_INFO: RNA encapsulation efficiency of LNPs (Ribogreen fluorescence assay)
Assay type: physicochemical
CONDITIONS_USED: LNP, sg:mRNA 1:2, N/P about 6, 50/9/38/3, TTR sgRNA (SEQ ID NO: 4); Table 6, Experiments 106-107
PARAMETER_MEASURED: % E (%)
Numbers only; they are read as %.

Sample CCCCC/C=C\C/C=C\CCCCCCCC(=O)OCC(COC(=O)CCC(OCCCCCCCC)OCCCCCCCC)COC(=O)OCCCN(CC)CC (centres unmarked) [Compound 1, reference compound] ; % E observed: 99

Sample CCCCC/C=C\C/C=C\CCCCCCCC(=O)OCC(COC(=O)CCC(OCCCCCCCC)OCCCCCCCC)COC(=O)NCCN1CCCCCC1 (centres unmarked) [Compound 103] ; % E observed: 99

Sample CC/C=C\C/C=C\C/C=C\CCCCCCCC(=O)OCC(COC(=O)CCC(OCCCCCCCC)OCCCCCCCC)COC(=O)OCCCN(CC)CC (centres unmarked) [Compound 116] ; % E observed: 99

Sample CCCCC/C=C\C/C=C\CCCCCCCC(=O)OCC(COC(=O)CCC(OCCCCCCCC)OCCCCCCCC)COC(=O)OCCCN1CCCCC1 (centres unmarked) [Compound 102] ; % E observed: 98

Sample CCCCCCCCCCCCCCCCCC(=O)OCC(COC(=O)CCC(OCCCCCCCC)OCCCCCCCC)COC(=O)OCCCN(CC)CC (centres unmarked) [Compound 114] ; % E observed: 96

Sample CCCCC/C=C\C/C=C\CCCCCCCC(=O)OCC(COC(=O)CCC(OCCCCCCCC)OCCCCCCCC)COC(=O)NCCN1CCCC1 (centres unmarked) [Compound 100] ; % E observed: 99

Sample CCCCCCCC/C=C\CCCCCCCC(=O)OCC(COC(=O)CCC(OCCCCCCCC)OCCCCCCCC)COC(=O)OCCCN(CC)CC (centres unmarked) [Compound 115] ; % E observed: 97

Sample CCCCC/C=C\C/C=C\CCCCCCCC(=O)OCC(COC(=O)CCC(OCCCCCCCC)OCCCCCCCC)COC(=O)NCCN1CCCCC1 (centres unmarked) [Compound 101] ; % E observed: 99

====

What pKa was measured for each of the following?
ASSAY_INFO: pKa measurement of unformulated amine lipid (fluorescence, method of Jayaraman et al.)
Type: physicochemical
CONDITIONS_USED: 100 μM in 0.1 M phosphate buffer, pH 2.0-12.0
Answer using only a numeral; do not append any unit.

Sample CCCCCCCCCCCCCCCCCC(=O)OCC(COC(=O)CCC(OCCCCCCCC)OCCCCCCCC)COC(=O)OCCCN(CC)CC (stereo not shown) ; pKa observed: 6.13

Sample CCCCCCCCCCCCOC(=O)CCCCCCCC(=O)OCC(COC(=O)CCC(OCCCCCCCC)OCCCCCCCC)COC(=O)OCCCN(CC)CC (stereo not shown) ; pKa observed: 6.16

Sample CCCCCCCCCCOC(=O)CCCCCCCC(=O)OCC(COC(=O)CCCC(=O)OC(CCCCCCCC)CCCCCCCC)COC(=O)OCCCN(CC)CC (stereo not shown) ; pKa observed: 6.16

Sample CCCCC/C=C\C/C=C\CCCCCCCC(=O)OCC(COC(=O)CCC(OCCCCCCCC)OCCCCCCCC)COC(=O)OCC1CCN(CC)C1 (stereo not shown) ; pKa observed: 7.3

Sample CCCCCCCCCCOC(=O)CCCCCCCC(=O)OCC(COC(=O)CCC(OCCCCCCCC)OCCCCCCCC)COC(=O)NCCN(CC)CC (stereo not shown) ; pKa observed: 6.64

Sample CCCCCCCCCCOC(=O)CCCCCCCC(=O)OCC(COC(=O)CCC(OCCCCCCCC)OCCCCCCCC)COC(=O)OCC1CCCN(CC)C1 (stereo not shown) ; pKa observed: 6.07

Sample CCCCC/C=C\C/C=C\CCCCCCCC(=O)OCC(COC(=O)CCC(OCCCCCCCC)OCCCCCCCC)OC(=O)OCCCN(CC)CC (stereo not shown) ; pKa observed: 6.09

Sample CCCCCC/C=C\COC(=O)CCCCCCCC(=O)OCC(COC(=O)CCCC(=O)OC(CCCCCCCC)CCCCCCCC)COC(=O)OCCCN(CC)CC (stereo not shown) ; pKa observed: 6.16

Sample CCCCC/C=C\C/C=C\CCCCCCCC(=O)OCC(COC(=O)CCC(OCCCCCCCC)OCCCCCCCC)COC(=O)OCC1CN(CC)C1 (stereo not shown) ; pKa observed: 5.2

Sample CCCCCCCCCCOC(=O)CCCCCCCC(=O)OCC(COC(=O)CCC(OCCCCCCCC)OCCCCCCCC)COC(=O)OCC1CCCN(C)C1 (stereo not shown) ; pKa observed: 6.44

Sample CCCCC/C=C\C/C=C\CCCCCCCC(=O)OCC(COC(=O)CCC(OCCCCCCCC)OCCCCCCCC)COC(=O)C1(C)CCN(C)CC1 (stereo not shown) ; pKa observed: 7.32

Sample CCCCCC/C=C\COC(=O)CCCC(=O)OCC(COC(=O)CCC(OCCCCCCCC)OCCCCCCCC)COC(=O)OCCCN(CC)CC (stereo not shown) ; pKa observed: 6.85

Sample CCCCC/C=C\C/C=C\CCCCCCCC(=O)OCC(COC(=O)OCCCN(CC)CC)COC(=O)C(CCCCCC)CCCCCCCC (stereo not shown) ; pKa observed: 5.88

Sample CCCCC/C=C\C/C=C\CCCCCCCC(=O)OCC(COC(=O)CCCCCC(CCCCCC)CCCCCC)COC(=O)OCCCN(CC)CC (stereo not shown) ; pKa observed: 6.1

Sample CCCCC/C=C\C/C=C\CCCCCCCC(=O)OCC(COC(=O)CCC(OCCCCCCCC)OCCCCCCCC)COC(=O)C1CCN(C)CC1 (stereo not shown) ; pKa observed: 7.31

Sample CCCCC/C=C\C/C=C\CCCCCCCC(=O)OCC(COC(=O)CCC(OCCCCCCCC)OCCCCCCCC)COC(=O)C1(C)CCN(C)C1 (stereo not shown) ; pKa observed: 6.06

Sample CCCCC/C=C\C/C=C\CCCCCCCC(=O)OCC(COC(=O)CCCCC(OCCCCCCCC)OCCCCCCCC)COC(=O)OCCCN(CC)CC (stereo not shown) ; pKa observed: 6.03

Sample CCCCCCCCCCOC(=O)CCCCCCCC(=O)OCC(COC(=O)CCC(OCCCCCCCCC)OCCCCCCCCC)COC(=O)OCCCN(CC)CC (stereo not shown) ; pKa observed: 6.13

Sample CCCCC/C=C\C/C=C\CCCCCCCC(=O)OCC(COC(=O)CCC(OCCCCCCCC)OCCCCCCCC)COC(=O)NC1CCCN(C)C1 (stereo not shown) ; pKa observed: 6.9

Sample CCCCC/C=C\C/C=C\CCCCCCCC(=O)OCC(COC(=O)CCC(OCCCCCCCC)OCCCCCCCC)COC(=O)CCN(CC)CC (stereo not shown) ; pKa observed: 5.35

Sample CCCCCCCCCCCCCCOC(=O)CCCCCCCC(=O)OCC(COC(=O)CCC(OCCCCCCCC)OCCCCCCCC)COC(=O)OCCCN(CC)CC (stereo not shown) ; pKa observed: 6.15

Sample CCCCC/C=C\C/C=C\CCCCCCCC(=O)OCC(COC(=O)CCCN(CC)CC)COC(=O)CCC(OCCCCCCCC)OCCCCCCCC (stereo not shown) ; pKa observed: 6.84

Sample CCCCC/C=C\C/C=C\CCCCCCCC(=O)OCC(COC(=O)CCC(OCCCCCCCC)OCCCCCCCC)COC(=O)NCC1CCCN1C (stereo not shown) ; pKa observed: 7.34

Sample CCCCC/C=C\C/C=C\CCCCCCCC(=O)OCC(COC(=O)CCC(OCCCCCCCC)OCCCCCCCC)COC(=O)NCCN1CCCCC1 (stereo not shown) ; pKa observed: 6.4

Sample CCCCCC/C=C\COC(=O)CCCCCCCC(=O)OCC(COC(=O)CCCCCC(=O)OC(CCCCCCCC)CCCCCCCC)COC(=O)OCCCN(CC)CC (stereo not shown) ; pKa observed: 6.16
